tested.on: Sodium/hydrogen exchanger 1 (Homo sapiens)
assay.procedure: Ratio of compound K0.5 to amiloride K0.5 for NHE1
endpoint.label: Ratio

# structure, tested.on, endpoint.label, recorded.value
records = [
    ("N=C(N)NC(=O)c1nc(Br)c(N2CCCCCC2)nc1N", "Sodium/hydrogen exchanger 1 (Homo sapiens)", "Ratio", 566),
    ("CCN(c1nc(N)c(C(=O)NC(=N)N)nc1Cl)C(C)C", "Sodium/hydrogen exchanger 1 (Homo sapiens)", "Ratio", 140),
    ("CCN(c1nc(N)c(C(=O)NC(=N)N)nc1I)C(C)C", "Sodium/hydrogen exchanger 1 (Homo sapiens)", "Ratio", 313),
    ("N=C(N)NC(=O)c1nc(Cl)c(N2CCCCCC2)nc1N", "Sodium/hydrogen exchanger 1 (Homo sapiens)", "Ratio", 524),
]

---

tested.on: Urokinase-type plasminogen activator (Homo sapiens, UniProt P00749)
Define the label as Condition met when IC50 is strictly less than 10 µM and as Condition not met in all remaining cases.

# compound, class.name
data = [
    ("N=C(N)NC(=O)c1ccccc1 [AMINO(BENZAMIDO)METHANIMINIUM CHLORIDE]", "Condition not met"),
    ("N=C(N)NC(=O)c1cnc(Cl)c(Cl)c1", "Condition not met"),
    ("N=C(N)NC(=O)c1nc(Cl)c(N2CCCCCC2)nc1N", "Condition met"),
    ("N=C(N)NC(=O)c1nc(Cl)c(NCCP(=O)(O)O)nc1N", "Condition not met"),
    ("N=C(N)NC(=O)c1cnccn1", "Condition not met"),
    ("N=C(N)NC(=O)c1nc(C#Cc2ccccc2)c(N)nc1N", "Condition met"),
    ("N=C(N)NC(=O)c1nc(Cl)cnc1N", "Condition not met"),
    ("N=C(N)NC(=O)c1nc(Cl)c(NCc2cccnc2)nc1N", "Condition not met"),
    ("CN(CCNc1nc(N)c(C(=O)NC(=N)N)nc1Cl)Cc1ccccc1", "Condition not met"),
    ("CCN(CC)CCNc1nc(N)c(C(=O)NC(=N)N)nc1Cl", "Condition not met"),
    ("N=C(N)NC(=O)c1nc(Cl)c(NCCc2ccccc2)nc1N", "Condition not met"),
    ("N=C(N)NC(=O)c1nc(Cl)c(NCc2ccccc2)nc1N", "Condition met"),
    ("N#CCCNc1nc(N)c(C(=O)NC(=N)N)nc1Cl", "Condition not met"),
]

Numbers sourced from ChEMBL document CHEMBL1909623.
